Property: ΔTm; scope: individual molecules
# tested_on: nsp14–nsp10 (Severe acute respiratory syndrome coronavirus 2, UniProt P0DTD1)
# Assay type: binding, SARS-CoV-2
# assay_conditions: 12.5 µM compound, 1 µM nsp14-10

{"columns": ["molecule", "value_units", "ΔTm"],
 "data": [
  ["O=C(O)C1=CC(=C(c2ccc(O)c(C(=O)O)c2)c2ccc(O)c(C(=O)O)c2)C=CC1=O [ATA, Aurintricarboxylic acid, reference compound]", "°C", 0.85],
  ["COc1cc2c3c(cccc3c1)C(=O)N(O)C2=O", "°C", 0.22],
  ["O=c1[nH]c2ccccc2c(=O)n1O", "°C", 0.31],
  ["O=c1c2ccccc2[nH]c(=S)n1O", "°C", 0.19],
  ["CN(C)C(=S)SSC(=S)N(C)C [thiram, reference compound]", "°C", -0.22],
  ["O=c1c2ccccc2n(Cc2ccccc2)c(=O)n1O", "°C", 0.27],
  ["CCN(CC)C(=S)SSC(=S)N(CC)CC [disulfiram, reference compound]", "°C", -0.13],
  ["O=C(O)c1nc(-c2ccccc2)nc(O)c1O", "°C", 0.08],
  ["COc1ccc2c3c(cccc13)C(=O)N(O)C2=O", "°C", 0.25]
]}

* * *

# tested_on: SARS-CoV-2 nsp14–nsp10 complex (nuclease activity) (Severe acute respiratory syndrome coronavirus 2)
# test_name: biochemical
# assay_conditions: 100 nM nsp14–nsp10, 10 nM 20-mer ssRNA, 37°C 45 min; […]; approximate/preliminary
Please use fulfilled for IC50 under 30 µM and not fulfilled for everything else, ties included.

{"columns": ["compound", "discrete_label"],
 "data": [
  ["CN(C)C(=S)SSC(=S)N(C)C [thiram, reference compound]", "not fulfilled"],
  ["O=c1c2ccccc2n(Cc2ccccc2)c(=O)n1O", "not fulfilled"],
  ["O=C(O)c1nc(-c2ccccc2)nc(O)c1O", "not fulfilled"],
  ["COc1cc2c3c(cccc3c1)C(=O)N(O)C2=O", "fulfilled"],
  ["Cc1nnc(C(=O)NC(C)(C)c2nc(C(=O)NCc3ccc(F)cc3)c(O)c(=O)n2C)o1 [raltegravir, reference compound]", "fulfilled"]
]}

* * *

# tested_on: nsp14–nsp10 (Severe acute respiratory syndrome coronavirus 2)
# Assay type: binding, SARS-CoV-2
# assay_conditions: 50 µM compound, 1 µM nsp14-10
recorded_endpoint: ΔTm (°C)

{"columns": ["molecule", "tested_on", "observed_measurement"],
 "data": [
  ["CN(C)C(=S)SSC(=S)N(C)C [thiram, reference compound]", "nsp14–nsp10 (Severe acute respiratory syndrome coronavirus 2)", -0.43],
  ["O=c1c2ccccc2n(Cc2ccccc2)c(=O)n1O", "nsp14–nsp10 (Severe acute respiratory syndrome coronavirus 2)", 0.35],
  ["O=c1[nH]c2ccccc2c(=O)n1O", "nsp14–nsp10 (Severe acute respiratory syndrome coronavirus 2)", 0.36],
  ["O=c1c2ccccc2[nH]c(=S)n1O", "nsp14–nsp10 (Severe acute respiratory syndrome coronavirus 2)", 0.38],
  ["COc1ccc2c3c(cccc13)C(=O)N(O)C2=O", "nsp14–nsp10 (Severe acute respiratory syndrome coronavirus 2)", 0.29],
  ["COc1cc2c3c(cccc3c1)C(=O)N(O)C2=O", "nsp14–nsp10 (Severe acute respiratory syndrome coronavirus 2)", 0.36],
  ["CCN(CC)C(=S)SSC(=S)N(CC)CC [disulfiram, reference compound]", "nsp14–nsp10 (Severe acute respiratory syndrome coronavirus 2)", -0.40],
  ["O=C(O)c1nc(-c2ccccc2)nc(O)c1O", "nsp14–nsp10 (Severe acute respiratory syndrome coronavirus 2)", 0.23]
]}
